# credit: patent US20140308201A1

Biological target: T1, Rat FGFR2 IIIb D1-3 (rat)
T1 chain: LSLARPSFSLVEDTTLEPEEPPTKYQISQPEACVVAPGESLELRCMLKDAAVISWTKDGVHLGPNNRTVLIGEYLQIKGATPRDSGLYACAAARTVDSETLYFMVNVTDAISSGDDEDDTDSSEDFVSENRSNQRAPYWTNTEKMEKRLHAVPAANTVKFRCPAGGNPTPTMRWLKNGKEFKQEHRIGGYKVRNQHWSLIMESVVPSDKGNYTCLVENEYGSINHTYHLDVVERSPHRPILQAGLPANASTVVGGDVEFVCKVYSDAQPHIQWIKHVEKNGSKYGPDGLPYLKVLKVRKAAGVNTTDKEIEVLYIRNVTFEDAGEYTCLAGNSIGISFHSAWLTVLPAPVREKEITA
Assay: SPR Biacore, IgG captured via anti-human Fc, soluble FGFR as analyte
Method: Affinity of the antibodies to FGFR2 species orthologues was determined using Biacore technology using a Biacore T100 instrument (GE Systems) and with CM5 sensor chips. […]
// reported Kd for each item listed
Use nM as the unit, but write only the number.

Worked set:
Binder	Measured Value
mAb12947 (antibody, human IgG1, kappa, V domains shown, HuCAL human IgG1) VH: QVQLVQSGAEVKKPGSSVKVSCKASGGTFSSYAISWVRQAPGQGLEWMGSIQPTAGPARYAQKFQGRVTITADESTSTAYMELSSLRSEDTAVYYCARASLYSVATGSYWKVYHPFDSWGQGTLVTVSS VL: DIQMTQSPSSLSASVGDRVTITCRASQDIYSYLAWYQQKPGKAPKLLIYDASSLQSGVPSRFSGSGSGTDFTLTISSLQPEDFATYYCQQADQYPVTFGQGTKVEIKR	5.1
mAb12439 (antibody, human IgG1, kappa, V domains shown, HuCAL human IgG1) VH: QVQLVQSGAEVKKPGASVKVSCKASGYTFTSYDISWVRQAPGQGLEWMGWINPYNGGTNYAQKFQGRVTMTRDTSISTAYMELSRLRSEDTAVYYCAREGSGMIVYPGWSYAFDYWGQGTLVTVSS VL: DIQMTQSPSSLSASVGDRVTITCRASQDISNDLGWYQQKPGKAPKLLIYAASSLQSGVPSRFSGSGSGTDFTLTISSLQPEDFATYYCQQHYHTPNTFGQGTKVEIKR	16
mAb12422 (antibody, human IgG1, kappa, V domains shown, HuCAL human IgG1) VH: QVQLVQSGAEVKKPGSSVKVSCKASGGTFSSYAISWVRQAPGQGLEWMGYISPYMGETHYAQKFQGRVTITADESTSTAYMELSSLRSEDTAVYYCARESYEYFDIWGQGTLVTVSS VL: DIQMTQSPSSLSASVGDRVTITCRASQSISNDLAWYQQKPGKAPKLLIYATSILQSGVPSRFSGSGSGTDFTLTISSLQPEDFATYYCLQYYDYSYTFGQGTKVEIKR	9.7

Lab note: next binder to report on.
State, in one line, measured Kd of mAb11725 (antibody, human IgG1, lambda, V domains shown, HuCAL human IgG1) VH: QVQLLESGGGLVQPGGSLRLSCAASGFTFNTYWLHWVRQAPGKGLEWVSVISSDSSSTYYADSVKGRFTISRDNSKNTLYLQMNSLRAEDTAVYYCARDSRLDYWGQGTLVTVSS VL: DIELTQPPSVSVSPGQTASITCSGDSIGDTYVDWYQQKPGQAPVLVIYDDIDRPSGIPERFSGSNSGNTATLTISGTQAEDEADYYCYVYAWTGTSNVFGGGTKLTVLG
140
